Data provenance: patent US20070117743A1

# Test system: DU-145
# test_description: SRB colorimetric assay of cell growth and viability, DU-145
# Type: cell-based, human
# measurement_context: 48 hours exposure, SRB
Where a SMILES comes first, the peptide text is derived from it. Bridges are numbered along the chain shown (N, C = ends). [ ]: non-standard residue; d: D form. The star is where a group is joined. d(aIle) = CC[C@H](C)[C@@H](N)C(=O)O; d(aThr) = C[C@@H](O)[C@@H](N)C(=O)O; Hexanoyl(5-Me) = CC(C)CCCC(=O)*; Orn = NCCC[C@H](N)C(=O)O; Dhb = C/C=C(\N)C(=O)O; Aib = CC(C)(N)C(=O)O
Attribute: LC50 (concentration causing 50% net cell kill)
measured_property: LC50 (concentration causing 50% net cell kill) (µM)

>>> test_result("C/C=C1\\NC(=O)[C@H](Cc2ccccc2)NC(=O)[C@@H](C(C)C)NC(=O)[C@@H]([C@@H](C)CC)NC(=O)[C@H](NC(=O)[C@H](NC(=O)[C@H](CCCC[N+](C)(C)C)NC(=O)[C@H]2CCCN2C(=O)[C@H](NC(=O)[C@@H](NC(=O)[C@@H](NC(=O)[C@H](NC(=O)CC[C@@H](C)CC)C(C)C)[C@@H](C)O)C(C)C)C(C)C)[C@@H](C)CC)[C@@H](C)OC(=O)[C@H](C(C)C)NC1=O [Compound 93, [N^ε(Me)3-Lys^8, (4S)-MeHex^14]-KF]")
0.044
>>> test_result("C/C=C1\\NC(=O)[C@H](Cc2ccccc2)NC(=O)[C@@H](C(C)C)NC(=O)[C@@H]([C@@H](C)CC)NC(=O)[C@H](NC(=O)[C@H](NC(=O)[C@H](CCCNC(=O)C(F)(F)F)NC(=O)[C@H]2CCCN2C(=O)[C@H](NC(=O)[C@@H](NC(=O)[C@@H](NC(=O)[C@H](NC(=O)CC[C@@H](C)CC)C(C)C)[C@@H](C)OC(=O)C(F)(F)F)C(C)C)C(C)C)[C@@H](C)CC)[C@@H](C)OC(=O)[C@H](C(C)C)NC1=O")
3.36
>>> test_result("C/C=C1\\NC(=O)[C@H](Cc2ccccc2)NC(=O)[C@@H](C(C)C)NC(=O)[C@@H]([C@@H](C)CC)NC(=O)[C@H](NC(=O)[C@H](NC(=O)[C@H](CCCNC(=O)C(F)(F)F)NC(=O)[C@H]2CCCN2C(=O)[C@H](NC(=O)[C@@H](NC(=O)[C@@H](NC(=O)[C@H](NC(=O)CC[C@@H](C)CC)C(C)C)[C@@H](C)O)C(C)C)C(C)C)[C@@H](C)CC)[C@@H](C)OC(=O)[C@H](C(C)C)NC1=O")
3.81
>>> test_result("C/C=C1\\NC(=O)[C@H](Cc2ccccc2)N(C)C(=O)[C@@H](C(C)C)NC(=O)[C@@H]([C@@H](C)CC)NC(=O)[C@H](NC(=O)[C@H](NC(=O)[C@H](CCCN)NC(=O)[C@H]2CCCN2C(=O)[C@H](NC(=O)[C@@H](NC(=O)[C@@H](NC(=O)[C@H](NC(=O)CC[C@@H](C)CC)C(C)C)[C@@H](C)O)C(C)C)C(C)C)[C@@H](C)CC)[C@@H](C)OC(=O)[C@H](C(C)C)NC1=O [Compound 80, [NMePhe^3, (4S)-MeHex^14]-KF]")
3.62
>>> test_result("C/C=C1\\NC(=O)[C@H](Cc2c[nH]c3ccccc23)NC(=O)[C@@H](C(C)C)NC(=O)[C@@H]([C@@H](C)CC)NC(=O)[C@H](NC(=O)[C@H](NC(=O)[C@H](CCCN)NC(=O)[C@H]2CCCN2C(=O)[C@H](NC(=O)[C@@H](NC(=O)[C@@H](NC(=O)[C@H](NC(=O)CCCC(C)C)C(C)C)[C@@H](C)O)C(C)C)C(C)C)[C@@H](C)CC)[C@@H](C)OC(=O)[C@H](C(C)C)NC1=O [Compound 68, [Trp^3]-KF] ({Hexanoyl(5-Me)}-[dV]TV[dV][dP][Orn][d(aIle)][d(aThr)][d(aIle)][dV]W[Dhb]V; ester 8-C)")
2.85
>>> test_result("C/C=C1\\NC(=O)[C@H](Cc2ccccc2)NC(=O)[C@@H](C(C)C)NC(=O)[C@@H]([C@@H](C)CC)NC(=O)[C@H](NC(=O)[C@H](NC(=O)[C@H](CCCN)NC(=O)[C@H]2CCCN2C(=O)[C@H](NC(=O)[C@@H](NC(=O)[C@@H](NC(=O)[C@H](NC(=O)CC[C@@H](C)CC)C(C)C)[C@@H](C)OC(=O)C(F)(F)F)C(C)C)C(C)C)[C@@H](C)CC)[C@@H](C)OC(=O)[C@H](C(C)C)NC1=O")
3.18
>>> test_result("C/C=C1\\NC(=O)[C@H](Cc2ccccc2)NC(=O)[C@@H](C(C)C)NC(=O)[C@@H]([C@@H](C)CC)NC(=O)[C@H](NC(=O)[C@H](NC(=O)[C@H](CCCN)NC(=O)[C@H]2CCCCN2C(=O)[C@H](NC(=O)[C@@H](NC(=O)[C@@H](NC(=O)[C@H](NC(=O)CC[C@@H](C)CC)C(C)C)[C@@H](C)O)C(C)C)C(C)C)[C@@H](C)CC)[C@@H](C)OC(=O)[C@H](C(C)C)NC1=O [Compound 60, [D-Pip^9, (4S)-MeHex^14]-KF]")
6.16
>>> test_result("CC[C@H](C)[C@@H](NC(=O)[C@H](CCCN)NC(=O)[C@H]1CCCN1C(=O)[C@H](NC(=O)[C@@H](NC(=O)[C@@H](NC(=O)[C@H](NC(=O)CCCC(C)C)C(C)C)[C@@H](C)O)C(C)C)C(C)C)C(=O)N[C@H]1C(=O)N[C@H]([C@@H](C)CC)C(=O)N[C@H](C(C)C)C(=O)N[C@@H](Cc2ccccc2)C(=O)NC(C)(C)C(=O)N[C@@H](C(C)C)C(=O)O[C@@H]1C [Compound 66, [Aib^2]-KF] ({Hexanoyl(5-Me)}-[dV]TV[dV][dP][Orn][d(aIle)][d(aThr)][d(aIle)][dV]F[Aib]V; ester 8-C)")
5.45

---

# Test system: LNCaP
# test_description: SRB colorimetric assay of cell growth and viability, LNCaP
# Assay type: cell-based, human
# measurement_context: 48 hours exposure, SRB
measured_property: TGI LN-caP

>>> test_result("C/C=C1\\NC(=O)[C@H](Cc2ccc([N+](=O)[O-])cc2)NC(=O)[C@@H](C(C)C)NC(=O)[C@@H]([C@@H](C)CC)NC(=O)[C@H](NC(=O)[C@H](NC(=O)[C@H](CCCN)NC(=O)[C@H]2CCCN2C(=O)[C@H](NC(=O)[C@@H](NC(=O)[C@@H](NC(=O)[C@H](NC(=O)CC[C@@H](C)CC)C(C)C)[C@@H](C)O)C(C)C)C(C)C)[C@@H](C)CC)[C@@H](C)OC(=O)[C@H](C(C)C)NC1=O [Compound 73, [Phe(4-NO2)^3, (4S)-MeHex^14]-KF]")
"8.41E−07 Molar"
>>> test_result("C/C=C1\\NC(=O)[C@H](Cc2ccccc2)NC(=O)[C@@H](C(C)C)NC(=O)[C@@H]([C@@H](C)CC)NC(=O)[C@H](NC(=O)[C@H](NC(=O)[C@H](CCCN)NC(=O)[C@@H]2CCCN2C(=O)[C@H](NC(=O)[C@@H](NC(=O)[C@@H](NC(=O)[C@H](NC(=O)CC[C@@H](C)CC)C(C)C)[C@@H](C)O)C(C)C)C(C)C)[C@@H](C)CC)[C@@H](C)OC(=O)[C@H](C(C)C)NC1=O [Compound 59, [Pro^9, (4S)-MeHex^14]-KF]")
"6.76E−06 Molar"

---

# Tested on: IGROV-ET
# test_description: SRB colorimetric assay of cell growth and viability, IGROV-ET
# Format: cell-based, human
# measurement_context: 48 hours exposure, SRB; read-out: LC50 IGROV-ET
measured_property: CC50 (nM)

>>> test_result("C/C=C1\\NC(=O)[C@H](Cc2ccccc2)NC(=O)[C@@H](C(C)C)NC(=O)[C@@H]([C@@H](C)CC)NC(=O)[C@H](NC(=O)[C@H](NC(=O)[C@H](CCCNC(=O)C(F)(F)F)NC(=O)[C@H]2CCCN2C(=O)[C@H](NC(=O)[C@@H](NC(=O)[C@@H](NC(=O)[C@H](NC(=O)CC[C@@H](C)CC)C(C)C)[C@@H](C)OC(=O)C(F)(F)F)C(C)C)C(C)C)[C@@H](C)CC)[C@@H](C)OC(=O)[C@H](C(C)C)NC1=O")
916

---

# System: LoVo
# test_description: SRB colorimetric assay of cell growth and viability, LoVo
# Assay type: cell-based, human
# measurement_context: 48 hours exposure
Attribute: GI50
measured_property: GI50 (µM)

>>> test_result("C/C=C1\\NC(=O)[C@H](Cc2ccccc2)NC(=O)[C@@H](C(C)C)NC(=O)[C@@H]([C@@H](C)CC)NC(=O)[C@H](NC(=O)[C@H](NC(=O)[C@H](CCCN)NC(=O)[C@H]2CCCN2C(=O)[C@H](NC(=O)[C@@H](NC(=O)[C@@H](NC(=O)[C@H](NC(=O)c2ccc(C)cc2)C(C)C)[C@@H](C)O)C(C)C)C(C)C)[C@@H](C)CC)[C@@H](C)OC(=O)[C@H](C(C)C)NC1=O [Compound 19, [p-MeBza^14]-KF]")
0.12
>>> test_result("C/C=C1\\NC(=O)[C@H](Cc2ccccc2)NC(=O)[C@@H](C(C)C)NC(=O)[C@@H]([C@@H](C)CC)NC(=O)[C@H](NC(=O)[C@H](NC(=O)[C@H](CCCN)NC(=O)[C@H]2CCCN2C(=O)[C@H](NC(=O)[C@@H](NC(=O)[C@@H](NC(=O)[C@H](NC(=O)CC[C@H](C)CC)C(C)C)[C@@H](C)O)C(C)C)C(C)C)[C@@H](C)CC)[C@@H](C)OC(=O)[C@H](C(C)C)NC1=O [Compound 16, [(4R)-MeHex^14]-KF]")
0.248
>>> test_result("C/C=C1\\NC(=O)[C@H](Cc2ccccc2)NC(=O)[C@@H](C(C)C)NC(=O)[C@@H]([C@@H](C)CC)NC(=O)[C@H](NC(=O)[C@H](NC(=O)[C@H](CCCN)NC(=O)[C@H]2CCCN2C(=O)[C@H](NC(=O)[C@@H](NC(=O)[C@@H](NC(=O)[C@@H](C)NC(=O)CCCC(C)C)[C@@H](C)O)C(C)C)C(C)C)[C@@H](C)CC)[C@@H](C)OC(=O)[C@H](C(C)C)NC1=O [Compound 34, [D-Ala^13]-KF]")
0.904
